- Study system: Mitogen-activated protein kinase 14 (Homo sapiens);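 note: values are mean percent inhibition of p38α kinase from the GSK PKIS published kinase inhibitor set screen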
- Condition notes: at 0.1 µM
Property: inhibition (%)

>>> numeric_value("N#Cc1ccc2c(-c3ccnc(NC4CC4)n3)c(-c3ccc(F)cc3)nn2c1")
75.4
>>> numeric_value("COc1cc2c(cc1Nc1nc(Nc3cccc(F)c3C(N)=O)c3cc[nH]c3n1)N(C(=O)CN1CCN(C(C)C)CC1)CC2")
5.02
>>> numeric_value("COc1ccc(Nc2ncc(-c3ccccc3)o2)cc1OC")
4.31
>>> numeric_value("CNC(=O)c1sc(-n2cnc3cc(OC)c(OC)cc32)cc1OCc1ccccc1C(F)(F)F")
5.47
>>> numeric_value("Cc1c2ccc(N(C)c3ccnc(Nc4cccc(S(N)(=O)=O)c4)n3)cc2nn1C")
2.68
>>> numeric_value("CN(c1ccc(NC(=O)NCCN2CCOCC2)cc1)c1ccnc(Nc2ccc(CS(C)(=O)=O)cc2)n1")
0.79
>>> numeric_value("Fc1cccc(COc2ccc(Nc3ncncc3C#Cc3ccccc3)cc2Cl)c1")
6.33
>>> numeric_value("COC(=O)Nc1nc2ccc(Oc3ccc(NC(=O)Nc4cc(C(F)(F)F)ccc4F)cc3)cc2s1")
18.9
>>> numeric_value("CS(=O)(=O)CCNCc1ccoc1-c1ccc2ncnc(Nc3ccc(OCc4ccccc4)cc3)c2c1")
2.69
>>> numeric_value("COc1cccc(-n2ncc3c(N/N=C/c4ccc(C(=O)NCCN(C)C)cc4)ncnc32)c1")
2.36

---

- Study system: Aurora kinase C (Homo sapiens);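 note: values are the mean inhibition of Aurora-C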
- Condition notes: at 0.1 µM
Property: inhibition (%)

>>> numeric_value("CCCNc1cccc(-n2ncc3c(N/N=C/c4ccncc4)ncnc32)c1")
17
>>> numeric_value("N#Cc1ccc2c(-c3ccnc(NC4CC4)n3)c(-c3ccc(F)cc3)nn2c1")
0.81
>>> numeric_value("NC(=O)c1ccc2c(-c3ccnc(NCCCO)n3)c(-c3ccc(F)cc3)nn2c1")
0.74
>>> numeric_value("COc1cc(N2CCN(C(C)C)CC2)ccc1Nc1nc(Nc2cccc(F)c2C(=O)O)c2cc[nH]c2n1")
0.7
>>> numeric_value("Cc1cc(O)cc(C)c1/C=C/c1cncc(C(N)=O)c1")
8.73
>>> numeric_value("Cn1c(-c2nonc2N)nc2cnccc21")
1.42

---

- Study system: Tyrosine-protein kinase ABL1 (Homo sapiens);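 note: reported values are mean percent inhibition of ABL1 kinase activity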
- Condition notes: at 1 µM
Assign TRUE to entries whose inhibition meets or exceeds 20%; assign FALSE to the rest.

>>> class_name("CC1=C(C(=O)Nc2ccc3[nH]nc(C)c3c2)C(c2ccc(C(F)(F)F)cc2)CC(=O)N1 (stereo not given)")
"FALSE"
>>> class_name("N#Cc1ccc2c(-c3ccnc(NC4CC4)n3)c(-c3ccc(F)cc3)nn2c1")
"FALSE"
>>> class_name("Cc1nnc(-c2cccc(-c3ccc(C(=O)NCC4CC4)cc3)c2)o1")
"FALSE"
>>> class_name("COc1ccc(-c2nn3ncccc3c2-c2ccnc(Nc3ccc(F)c(F)c3)n2)cc1")
"FALSE"
>>> class_name("CCS(=O)(=O)c1ccc(OC)c(Nc2ncc(-c3cccc(F)c3)o2)c1")
"TRUE"
>>> class_name("COc1cccc(-n2ncc3c(N/N=C/c4ccc(C(=O)NCCN(C)C)cc4)ncnc32)c1")
"TRUE"
>>> class_name("CN(c1ccc(NC(=O)NCCN2CCOCC2)cc1)c1ccnc(Nc2ccc(CS(C)(=O)=O)cc2)n1")
"TRUE"
>>> class_name("N#Cc1cccc(Nc2ncc(-c3ccccc3)o2)c1")
"TRUE"
>>> class_name("NS(=O)(=O)c1ccc(N/N=C2\\C(=O)Nc3cccc(CCc4ccncc4)c32)cc1")
"FALSE"
>>> class_name("CS(=O)(=O)CCNCc1ccc(-c2ccc3ncnc(Nc4ccc(OCc5cccc(C(F)(F)F)c5)cc4)c3c2)o1")
"FALSE"
>>> class_name("c1ccc(-c2n[nH]cc2-c2ccnc(-c3ccc(OCCn4ccnc4)cc3)c2)nc1")
"TRUE"
>>> class_name("NC(=O)c1ccc2c(-c3ccnc(NCCCO)n3)c(-c3ccc(F)cc3)nn2c1")
"FALSE"
>>> class_name("COc1c(C(N)=O)cc(-c2ccc(Cl)cc2)cc1-c1ccc(S(N)(=O)=O)cc1")
"FALSE"
>>> class_name("CS(=O)(=O)CCNCc1ccc(-c2ccc3ncnc(Nc4ccc(OCc5ccccc5)cc4)c3c2)o1")
"FALSE"
>>> class_name("O=C(O[C@H]1CN[C@H](C#Cc2cc3ncnc(Nc4ccc5c(cnn5Cc5ccccc5)c4)c3s2)C1)N1CCOCC1")
"FALSE"
>>> class_name("COc1ccc(Nc2ncc(-c3ccccc3)o2)cc1OC")
"TRUE"
>>> class_name("COc1cc(N2CCN(C(C)C)CC2)ccc1Nc1nc(Nc2cccc(F)c2C(=O)O)c2cc[nH]c2n1")
"FALSE"
>>> class_name("Cc1ccc(-c2cc3c(NC(=O)C4CC4)ncnc3o2)cc1")
"TRUE"
>>> class_name("COc1ccc2ncn(-c3cc(O[C@H](C)c4ccccc4C(F)(F)F)c(C(N)=O)s3)c2c1")
"FALSE"
>>> class_name("NS(=O)(=O)c1ccc(N/N=C2\\C(=O)Nc3ccc(C(=O)NCc4ccncc4)cc32)cc1")
"FALSE"
>>> class_name("O=C(Nc1n[nH]c2nnc(-c3cccnc3)cc12)C1CC1")
"FALSE"
>>> class_name("O=C1Nc2ccccc2/C1=C1\\CCc2cc(O)ccc21")
"FALSE"
>>> class_name("CCn1c(-c2nonc2N)nc2cncc(C(=O)NCCNC)c21")
"FALSE"
>>> class_name("Cc1cc(O)cc(C)c1/C=C/c1cncc(C(=O)OC(C)(C)C)c1")
"TRUE"
>>> class_name("CCN1CCC(C(=O)Nc2n[nH]c3nnc(-c4cccc(F)c4F)cc23)CC1")
"FALSE"
>>> class_name("CNC(=O)c1sc(-n2cnc3cc(OC)c(OC)cc32)cc1OCc1ccccc1C(F)(F)F")
"FALSE"
>>> class_name("CS(=O)(=O)CCNCc1ccoc1-c1ccc2ncnc(Nc3ccc(OCc4ccccc4)cc3)c2c1")
"FALSE"
>>> class_name("CCOc1ccc2c(-c3ccnc(Nc4cc(OC)cc(C(F)(F)F)c4)n3)cnn2n1")
"FALSE"
>>> class_name("COc1cccc(Nc2nccc(-c3cnn4ncccc34)n2)c1")
"TRUE"

---

- Study system: Tyrosine-protein kinase Srms (Homo sapiens);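 note: reported value is a mean of the inhibition readings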
- Condition notes: at 0.1 µM
Property: inhibition (%)

>>> numeric_value("Fc1cccc(COc2ccc(Nc3ncncc3C#Cc3ccccc3)cc2Cl)c1")
-1.92
>>> numeric_value("CS(=O)(=O)Nc1ccc(-c2cc(-c3ccccc3)cc(C(N)=O)c2N)cc1")
-2.19
>>> numeric_value("CC(C)c1ccc(-c2cc(-c3c[nH]nc3-c3ccccn3)ccn2)cc1")
0.28
>>> numeric_value("COc1c(C(N)=O)cc(-c2ccc(Cl)cc2)cc1-c1ccc(S(N)(=O)=O)cc1")
-1.8
>>> numeric_value("CNC(=O)c1sc(-n2cnc3cc(OC)c(OC)cc32)cc1OCc1ccccc1C(F)(F)F")
-1.1

---

- Study system: MAP kinase-activated protein kinase 5 (Homo sapiens);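 note: mean inhibition of PRAK measured in the GSK PKIS screen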
- Condition notes: at 1 µM
Let's look at some compounds and their measured inhibition.
Property: inhibition (%)

>>> numeric_value("COc1ccc(-c2nn3ncccc3c2-c2ccnc(Nc3ccc(F)c(F)c3)n2)cc1")
4.42
>>> numeric_value("COc1cc(Nc2ncc(-c3ccccc3)o2)cc(OC)c1")
2.34
>>> numeric_value("Cc1cc(O)cc(C)c1/C=C/c1cncc(C(=O)OC(C)(C)C)c1")
1.6
>>> numeric_value("COc1ccccc1-c1cc(/C=C2\\C(=O)Nc3ncc(Br)cc32)cc(Br)c1O")
0.67
>>> numeric_value("N#Cc1cccc(Nc2ncc(-c3ccccc3)o2)c1")
2.58
>>> numeric_value("O=C(O[C@H]1CN[C@H](C#Cc2cc3ncnc(Nc4ccc(OCc5cccc(F)c5)c(Cl)c4)c3s2)C1)N1CCOCC1")
4.32
>>> numeric_value("c1cnn2ncc(-c3ccnc(NCCCN4CCOCC4)n3)c2c1")
1.07
>>> numeric_value("Fc1ccc(Nc2nccc(-c3c(-c4ccc(C(F)(F)F)cc4)nn4ncccc34)n2)cc1F")
-0.23
>>> numeric_value("NS(=O)(=O)c1ccc(N/N=C2\\C(=O)Nc3ccc(C(=O)NCc4ccncc4)cc32)cc1")
6.01
>>> numeric_value("NS(=O)(=O)c1cccc(N/C=C2\\C(=O)Nc3ccccc32)c1")
1.53
>>> numeric_value("O=C(Nc1n[nH]c2nnc(-c3cccnc3)cc12)C1CC1")
-0.19
>>> numeric_value("CCOc1ccc2c(-c3ccnc(Nc4cc(OC)cc(C(F)(F)F)c4)n3)cnn2n1")
-0.8
>>> numeric_value("Cc1c2ccc(N(C)c3ccnc(Nc4cccc(S(N)(=O)=O)c4)n3)cc2nn1C")
1.08
>>> numeric_value("COc1c(C(N)=O)cc(-c2ccc(Cl)cc2)cc1-c1ccc(S(N)(=O)=O)cc1")
2.31
>>> numeric_value("COc1cc(N2CCN(C(C)C)CC2)ccc1Nc1nc(Nc2cccc(F)c2C(=O)O)c2cc[nH]c2n1")
2.28
>>> numeric_value("N#Cc1ccc2c(-c3ccnc(NC4CC4)n3)c(-c3ccc(F)cc3)nn2c1")
-0.5
>>> numeric_value("COC(=O)Nc1nc2ccc(Oc3ccc(NC(=O)Nc4cc(C(F)(F)F)ccc4F)cc3)cc2s1")
-0.36
>>> numeric_value("CC1=C(C(=O)Nc2ccc3[nH]nc(C)c3c2)C(c2ccc(C(F)(F)F)cc2)CC(=O)N1 (stereo not given)")
-0.66
>>> numeric_value("Cn1c(-c2nonc2N)nc2cnccc21")
0.93
>>> numeric_value("CS(=O)(=O)Nc1ccc(-c2cc(-c3ccccc3)cc(C(N)=O)c2N)cc1")
3.19
>>> numeric_value("CNC(=O)c1cncc(/C=C/c2ccccc2C)c1")
3.16
>>> numeric_value("NS(=O)(=O)c1ccc(N/N=C2\\C(=O)Nc3cccc(CCc4ccncc4)c32)cc1")
0.28
>>> numeric_value("COc1cccc(Nc2nccc(-c3cnn4ncccc34)n2)c1")
3.44
>>> numeric_value("CS(=O)(=O)CCNCc1ccc(-c2ccc3ncnc(Nc4ccc(OCc5cccc(C(F)(F)F)c5)cc4)c3c2)o1")
1.44
>>> numeric_value("CCn1c(-c2nonc2N)nc2cncc(C(=O)NCCNC)c21")
1.58
>>> numeric_value("CCS(=O)(=O)c1ccc(OC)c(Nc2ncc(-c3cccc(C(C)=O)c3)o2)c1")
2
>>> numeric_value("CC(C)c1ccc(-c2cc(-c3c[nH]nc3-c3ccccn3)ccn2)cc1")
-0.19
>>> numeric_value("CS(=O)(=O)CCNCc1ccc(-c2ccc3ncnc(Nc4ccc(OCc5ccccc5)cc4)c3c2)o1")
1.42
>>> numeric_value("COC(=O)Nc1nc2cc(Oc3ccc(NC(=O)Nc4ccccc4)cc3)ccc2[nH]1")
2.59
>>> numeric_value("O=C1Nc2ccccc2/C1=C1\\CCc2cc(O)ccc21")
2.07
>>> numeric_value("OCCCNc1nccc(-c2c(-c3ccc(F)cc3)nn3cc(C(F)(F)F)ccc23)n1")
-1.07
>>> numeric_value("c1ccc(-c2n[nH]cc2-c2ccnc(-c3ccc(OCCn4ccnc4)cc3)c2)nc1")
1.25
>>> numeric_value("COc1ccc(Nc2ncc(-c3ccccc3)o2)cc1OC")
-1.05
>>> numeric_value("CN(c1ccc(NC(=O)NCCN2CCOCC2)cc1)c1ccnc(Nc2ccc(CS(C)(=O)=O)cc2)n1")
3.14
>>> numeric_value("CS(=O)(=O)Nc1ccc(-c2ccc3c(NC(=O)C4CC4)n[nH]c3c2)cc1")
-1.55
>>> numeric_value("CC1=C(C(=O)Nc2ccc3[nH]ncc3c2)C(c2ccc(F)cc2)N=C(c2ccc(C(F)(F)F)nc2)N1 (stereo not given)")
0.22
>>> numeric_value("CNC(=O)c1ncccc1Nc1nc(Nc2cc3c(cc2OC)CCCN3C(=O)CN(C)C)nc2[nH]ccc12")
0.65
>>> numeric_value("CN(C)CCNC(=O)Nc1ccc(N(C)c2ccnc(Nc3ccc(CS(C)(=O)=O)cc3)n2)cc1")
0.33
>>> numeric_value("O=C(O[C@H]1CN[C@H](C#Cc2cc3ncnc(Nc4ccc5c(cnn5Cc5ccccc5)c4)c3s2)C1)N1CCOCC1")
-1.44
>>> numeric_value("COc1ccc2ncn(-c3cc(O[C@H](C)c4ccccc4C(F)(F)F)c(C(N)=O)s3)c2c1")
-0.07
